Assay: amyloid nucleation score (Sup35N fusion, yeast selection) (log enrichment); library NNK2; higher = more nucleation; inactive = no reads after selection;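 also: zero at mode of non-aggregating sequences after 7 days selection at 30°C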
reported.property: amyloid nucleation score
Answer using only a numeral; do not append any unit.

Recorded amyloid nucleation score, per entry:
INSERT INTO results (substance, reported_property, value_measured) VALUES
  ('DGSSDRQGVKFFVDTSFLSR', 'amyloid nucleation score', -0.593),
  ('LGSCHAMRLIEDGSGMEWMF', 'amyloid nucleation score', 0.645),
  ('SKMYMPAVWMDGPSPQTTMW', 'amyloid nucleation score', 0.73);

Reported amyloid nucleation score for LTGTMVMIVNPLDCVLGVER was 5.01

Reported amyloid nucleation score for CDTLTRRFVRCNVWFQCKR was 3.96

Reported amyloid nucleation score for HRTLMIVKLCKRSGPFIL was -1.22

Reported amyloid nucleation score for MVVEFCYVRYRAN was 0.716
